- targetSystem: menin-MLL interaction (Homo sapiens, UniProt O00255)
- Sequence (O00255 whole entry): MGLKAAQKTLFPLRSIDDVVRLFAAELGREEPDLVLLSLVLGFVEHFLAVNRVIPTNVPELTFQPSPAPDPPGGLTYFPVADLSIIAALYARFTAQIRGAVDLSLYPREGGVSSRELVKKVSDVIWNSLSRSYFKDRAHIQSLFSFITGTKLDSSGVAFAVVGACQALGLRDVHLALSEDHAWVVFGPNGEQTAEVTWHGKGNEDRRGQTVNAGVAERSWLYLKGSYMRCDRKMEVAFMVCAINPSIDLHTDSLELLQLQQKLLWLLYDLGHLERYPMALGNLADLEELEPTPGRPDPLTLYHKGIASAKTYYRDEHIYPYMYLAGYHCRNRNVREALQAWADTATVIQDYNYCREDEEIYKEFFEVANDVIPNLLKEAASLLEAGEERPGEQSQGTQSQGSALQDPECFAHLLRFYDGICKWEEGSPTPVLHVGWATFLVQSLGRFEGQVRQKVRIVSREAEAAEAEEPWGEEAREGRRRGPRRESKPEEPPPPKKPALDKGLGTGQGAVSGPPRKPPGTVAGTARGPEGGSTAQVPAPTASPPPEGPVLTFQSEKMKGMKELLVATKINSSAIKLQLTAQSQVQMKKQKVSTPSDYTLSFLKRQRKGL
- testDetails: Fluorescence polarization (FP) competition assay
- runConditions: menin / MLL 4-43 peptide
Exercise: state measured IC50 for each of the molecules provided.

CC[C@H]1CN(C(C)Cn2c(C#N)cc3c(C)c(CN4CCC(Nc5ncnc6sc(CC(F)(F)F)cc56)CC4)ccc32)CCN1S(C)(=O)=O (stereo partly drawn)    250 to 1000 nM
Cc1c(CN2CCC(Nc3ncnc4sc(CC(F)(F)F)cc34)CC2)ccc2c1cc(C#N)n2C[C@H](C)N1CCN(C(=O)C(F)(F)F)CC1    250 to 1000 nM
Cc1c(CN2CCC(Nc3ncnc4sc(CC(F)(F)F)cc34)CC2)ccc2c1cc(C#N)n2CC12CC(NC(=O)C3CCCC(=O)N3)(C1)C2 (stereo not drawn)    < 50 nM
CNS(=O)(=O)N1CCN(C(C)Cn2c(C#N)cc3c(C)c(CN4CCC(Nc5ncnc6sc(CC(F)(F)F)cc56)CC4)ccc32)CC1 (stereo not drawn)    50 to 250 nM

Quick one: give me IC50 for each item below, same order please.
1. Cc1c(CN2CCC(Nc3ncnc4sc(CC(F)(F)F)cc34)CC2)ccc2c1cc(C#N)n2CC(C(C)C)N1CCN(S(C)(=O)=O)CC1 (stereo not drawn)
2. COc1nc(NC2CCN(Cc3ccc4c(cc(C#N)n4C[C@H](C)N4CCC(S(C)(=O)=O)CC4)c3C)CC2)c2cc(CC(F)(F)F)sc2n1
3. Cc1c(CN2CCC(Nc3ncnc4sc(CC(F)(F)F)cc34)CC2)ccc2c1cc(C#N)n2CCN1CCC2(CC1)CC(S(C)(=O)=O)C2
4. Cc1c(CN2CCC(Nc3ncnc4sc(CC(F)(F)F)cc34)CC2)ccc2c1cc(C#N)n2CCN1CC2(CCN(S(C)(=O)=O)CC2)C1
5. Cc1c(CN2CCC(Nc3ncnc4sc(CC(F)(F)F)cc34)CC2)ccc2c1cc(C#N)n2C[C@@H](C)N1CCN(C=O)CC1
6. CNc1nc(NC2CCN(Cc3ccc4c(cc(C#N)n4C[C@H](C)N4CCN(S(=O)(=O)NC)CC4)c3C)CC2)c2cc(CC(F)(F)F)sc2n1
7. Cc1c(CN2CCC(Nc3ncnc4sc(CC(F)(F)F)cc34)CC2)ccc2c1cc(C#N)n2CC(C)C1CCN(S(C)(=O)=O)CC1 (stereo not drawn)
8. Cc1c(CN2CCC(Nc3nc(C4CC4)nc4sc(CC(F)(F)F)cc34)CC2)ccc2c1cc(C#N)n2C[C@H](C)N1CCN(S(C)(=O)=O)CC1

Ans:
1. 250 to 1000 nM
2. < 50 nM
3. 50 to 250 nM
4. 250 to 1000 nM
5. 250 to 1000 nM
6. 50 to 250 nM
7. 250 to 1000 nM
8. 250 to 1000 nM
